tested on: SJSA-1 (sarcoma tissue); test: cells; type: cell-based; conditions: CCK8, 48 h; Table 1
Where a SMILES comes first, the peptide text is derived from it. The star is where a group is joined. NEt(2-(20S-CPT-7-yl)ethyl) = CCN(CCc1c2c(nc3ccccc13)-c1cc3c(c(=O)n1C2)COC(=O)[C@]3(O)CC)*; X3 = CC[C@@]1(O)C(=O)OCc2c1cc1n(c2=O)Cc2c-1nc1ccccc1c2CCN(C1CC1)*; X7 = CC[C@@]1(O)C(=O)OCc2c1cc1n(c2=O)Cc2c-1nc1ccccc1c2CCN(C)*; Propanoyl(3-maleimido) = O=C1C=CC(=O)N1CCC(=O)*; PEG6 = NCCOCCOCCOCCOCCOCCOCCC(=O)O
fulfilled if IC50 SJSA-1 (sarcoma tissue) is below 0.05 µg/mL. not fulfilled if not; exact matches included in not fulfilled.

Request: Say whether its IC50 SJSA-1 (sarcoma tissue) is strictly beneath 0.05 µg/mL. Entry: CC[C@@]1(O)C(=O)OCc2c1cc1n(c2=O)Cc2c-1nc1ccccc1c2CCNC1CCC1 [D7]
Response: fulfilled

Request: Lab note: confirm whether the reported IC50 SJSA-1 (sarcoma tissue) for this compound is below 0.05 µg/mL, equality not counting. compound: CC[C@@]1(O)C(=O)OCc2c1cc1n(c2=O)Cc2c-1nc1ccccc1c2CCN(C)C(=O)CNC(=O)[C@H](Cc1ccccc1)NC(=O)CNC(=O)CNC(=O)CCOCCOCCOCCOCCOCCOCCNC(=O)CCN1C(=O)C=CC1=O [MI-6PEG-GGFG-D1] ({Propanoyl(3-maleimido)-PEG6}-GGFG-X7)
Response: not fulfilled

Request: Item CC[C@@]1(O)C(=O)OCc2c1cc1n(c2=O)Cc2c-1nc1ccccc1c2CCNC1CCCC1 [D8] : IC50 SJSA-1 (sarcoma tissue) beneath 0.05 µg/mL, strictly?
Response: fulfilled

Request: Dear reviewer, please state whether CCN(CCc1c2c(nc3ccccc13)-c1cc3c(c(=O)n1C2)COC(=O)[C@]3(O)CC)C(=O)CNC(=O)[C@H](CCCCN)NC(=O)[C@H](C)NC(=O)[C@H](C)NC(=O)CCOCCOCCOCCOCCOCCOCCNC(=O)CCN1C(=O)C=CC1=O [MI-6PEG-AAKG-D2] ({Propanoyl(3-maleimido)-PEG6}-AAKG-{NEt(2-(20S-CPT-7-yl)ethyl)}) has IC50 SJSA-1 (sarcoma tissue) strictly beneath 0.05 µg/mL.
Response: not fulfilled

Request: Hello, I'm reviewing records and need to know if IC50 SJSA-1 (sarcoma tissue) of CC[C@@]1(O)C(=O)OCc2c1cc1n(c2=O)Cc2c-1nc1ccccc1c2CCN(C(=O)CNC(=O)[C@H](CC(N)=O)NC(=O)[C@H](C)NC(=O)[C@H](C)NC(=O)CCOCCOCCOCCOCCOCCOCCNC(=O)CCN1C(=O)C=CC1=O)C1CC1 [MI-6PEG-AANG-D6] ({Propanoyl(3-maleimido)-PEG6}-AANG-X3) is below 0.05 µg/mL. Could you check?
Response: not fulfilled

Request: Here's an entry: CC[C@@]1(O)C(=O)OCc2c1cc1n(c2=O)Cc2c-1nc1ccccc1c2CCNC1CC1 [D6] . Is its IC50 SJSA-1 (sarcoma tissue) below 0.05 µg/mL?
Response: fulfilled

Request: Dear colleague, could you confirm whether IC50 SJSA-1 (sarcoma tissue) of CC[C@@]1(O)C(=O)OCc2c1cc1n(c2=O)Cc2c-1nc1ccccc1c2CCNC [D1] falls below 0.05 µg/mL? Thanks.
Response: fulfilled

Request: Find out if reported IC50 SJSA-1 (sarcoma tissue) for CCCCNCCc1c2c(nc3ccccc13)-c1cc3c(c(=O)n1C2)COC(=O)[C@]3(O)CC [D4] is less than 0.05 µg/mL
Response: not fulfilled

Request: # strict comparison: is reported IC50 SJSA-1 (sarcoma tissue) < 0.05 µg/mL? input = CCNCCc1c2c(nc3ccccc13)-c1cc3c(c(=O)n1C2)COC(=O)[C@]3(O)CC [D2]
Response: fulfilled

###

The compounds listed here are annotated with their Percentage of release efficiency (%) Non-small cell lung cancer tissue (A549).
experiment: Tumor homogenate activation efficiency, non-small cell lung cancer tissue (Examples 28, 37); type: in vitro ADME; conditions: pH 5.0, 37° C., 2 h; Table 5
Where a SMILES comes first, the peptide text is derived from it. The star is where a group is joined. NEt(2-(20S-CPT-7-yl)ethyl) = CCN(CCc1c2c(nc3ccccc13)-c1cc3c(c(=O)n1C2)COC(=O)[C@]3(O)CC)*; X8 = CC[C@@]1(O)C(=O)OCc2c1cc1n(c2=O)Cc2c-1nc1ccccc1c2CCN(C1CCCC1)*; X4 = CCCN(CCc1c2c(nc3ccccc13)-c1cc3c(c(=O)n1C2)COC(=O)[C@]3(O)CC)*; X3 = CC[C@@]1(O)C(=O)OCc2c1cc1n(c2=O)Cc2c-1nc1ccccc1c2CCN(C1CC1)*; Propanoyl(3-maleimido) = O=C1C=CC(=O)N1CCC(=O)*; PEG6 = NCCOCCOCCOCCOCCOCCOCCC(=O)O

Lab note: CC[C@@]1(O)C(=O)OCc2c1cc1n(c2=O)Cc2c-1nc1ccccc1c2CCN(C(=O)CNC(=O)[C@H](CC(N)=O)NC(=O)[C@H](C)NC(=O)[C@H](C)NC(=O)CCOCCOCCOCCOCCOCCOCCNC(=O)CCN1C(=O)C=CC1=O)C1CCCC1 [MI-6PEG-AANG-D8] ({Propanoyl(3-maleimido)-PEG6}-AANG-X8) gave Percentage of release efficiency (%) Non-small cell lung cancer tissue (A549) of 85.1%

Entry CCN(CCc1c2c(nc3ccccc13)-c1cc3c(c(=O)n1C2)COC(=O)[C@]3(O)CC)C(=O)CNC(=O)[C@H](CC(N)=O)NC(=O)[C@H](C)NC(=O)CNC(=O)CCOCCOCCOCCOCCOCCOCCNC(=O)CCN1C(=O)C=CC1=O [MI-6PEG-GANG-D2] ({Propanoyl(3-maleimido)-PEG6}-GANG-{NEt(2-(20S-CPT-7-yl)ethyl)}) , Percentage of release efficiency (%) Non-small cell lung cancer tissue (A549) reported as 65.9%

Looking up CCCN(CCc1c2c(nc3ccccc13)-c1cc3c(c(=O)n1C2)COC(=O)[C@]3(O)CC)C(=O)CNC(=O)[C@H](CC(N)=O)NC(=O)[C@H](C)NC(=O)[C@H](C)NC(=O)CCOCCOCCOCCOCCOCCOCCNC(=O)CCN1C(=O)C=CC1=O [MI-6PEG-AANG-D3] ({Propanoyl(3-maleimido)-PEG6}-AANG-X4) , I see its Percentage of release efficiency (%) Non-small cell lung cancer tissue (A549) listed as 82.6%

For reference, reported Percentage of release efficiency (%) Non-small cell lung cancer tissue (A549) for CC[C@@]1(O)C(=O)OCc2c1cc1n(c2=O)Cc2c-1nc1ccccc1c2CCN(C(=O)CNC(=O)[C@H](CC(N)=O)NC(=O)[C@H](C)NC(=O)[C@H](C)NC(=O)CCOCCOCCOCCOCCOCCOCCNC(=O)CCN1C(=O)C=CC1=O)C1CC1 [MI-6PEG-AANG-D6] ({Propanoyl(3-maleimido)-PEG6}-AANG-X3) stands at 73.1%

###

system: colo320 colorectal cancer tumor model; settings: 5 mg/kg once a week for four weeks; Table 8
quantity: Mouse weight (%)
Please reply with the bare figure in % and do not write the unit itself.

Known Mouse weight (%) results, listed for orientation:
| compound | target of assay | Mouse weight (%) |
| --- | --- | --- |
| CC[C@@]1(O)C(=O)OCc2c1cc1n(c2=O)Cc2c-1nc1ccccc1c2CCNC [D1] | colo320 colorectal cancer tumor model | −7 |
| CC[C@@]1(O)C(=O)OCc2c1cc1n(c2=O)Cc2c-1nc1ccccc1c2CCNC1CCC1 | colo320 colorectal cancer tumor model | −8 |
| CC[C@@]1(O)C(=O)OCc2c1cc1n(c2=O)Cc2c-1nc1ccccc1c2CCNC(C)C [Belotecan, reference compound] | colo320 colorectal cancer tumor model | −9 |
| CC[C@@]1(O)C(=O)OCc2c1cc1n(c2=O)Cc2c-1nc1ccccc1c2CCNC1CCCC1 | colo320 colorectal cancer tumor model | −6 |
| CCNCCc1c2c(nc3ccccc13)-c1cc3c(c(=O)n1C2)COC(=O)[C@]3(O)CC [D2] | colo320 colorectal cancer tumor model | −7 |

We now examine a further compound.
For record CC[C@@]1(O)C(=O)OCc2c1cc1n(c2=O)Cc2c-1nc1ccccc1c2CCNC1CC1 the listed Mouse weight (%) is −4

###

tested on: SJSA-1 (sarcoma tissue); assay: cells; assay type: cell-based; conditions: CCK8, 48 h; Table 1
Where a SMILES comes first, the peptide text is derived from it. The star is where a group is joined. X6 = CCCCCN(CCc1c2c(nc3ccccc13)-c1cc3c(c(=O)n1C2)COC(=O)[C@]3(O)CC)*; X8 = CC[C@@]1(O)C(=O)OCc2c1cc1n(c2=O)Cc2c-1nc1ccccc1c2CCN(C1CCCC1)*; Propanoyl(3-maleimido) = O=C1C=CC(=O)N1CCC(=O)*; PEG6 = NCCOCCOCCOCCOCCOCCOCCC(=O)O
quantity: IC50 SJSA-1 (sarcoma tissue) (µg/mL)
Supply the numeric figure in µg/mL, leaving out any unit text.

| molecule | target of assay | value |
| --- | --- | --- |
| CC[C@@]1(O)C(=O)OCc2c1cc1n(c2=O)Cc2c-1nc1ccccc1c2CCN(C(=O)CNC(=O)[C@H](CC(N)=O)NC(=O)[C@H](C)NC(=O)[C@H](C)NC(=O)CCOCCOCCOCCOCCOCCOCCNC(=O)CCN1C(=O)C=CC1=O)C1CCCC1 [MI-6PEG-AANG-D8] ({Propanoyl(3-maleimido)-PEG6}-AANG-X8) | SJSA-1 (sarcoma tissue) | 0.87 |
| CC[C@@]1(O)C(=O)OCc2c1cc1n(c2=O)Cc2c-1nc1ccccc1c2CCNCC(C)C | SJSA-1 (sarcoma tissue) | 0.012 |
| CCCCCN(CCc1c2c(nc3ccccc13)-c1cc3c(c(=O)n1C2)COC(=O)[C@]3(O)CC)C(=O)CNC(=O)[C@H](CC(N)=O)NC(=O)[C@H](C)NC(=O)[C@H](C)NC(=O)CCOCCOCCOCCOCCOCCOCCNC(=O)CCN1C(=O)C=CC1=O [MI-6PEG-AANG-D4] ({Propanoyl(3-maleimido)-PEG6}-AANG-X6) | SJSA-1 (sarcoma tissue) | 2.52 |

Consider the record given below.
Noted for CC[C@@]1(O)C(=O)OCc2c1cc1n(c2=O)Cc2c-1nc1ccccc1c2CCN(C(=O)CNC(=O)[C@H](Cc1ccccc1)NC(=O)CNC(=O)CNC(=O)CCOCCOCCOCCOCCOCCOCCNC(=O)CCN1C(=O)C=CC1=O)C1CCCC1 [MI-6PEG-GGFG-D8] ({Propanoyl(3-maleimido)-PEG6}-GGFG-X8) : its IC50 SJSA-1 (sarcoma tissue) reads 2.35
